Taken from ChEMBL document CHEMBL3244114.

molecular target: UniProt P06186; assay: Binding affinity to progesterone receptor in rabbit uterine cytosol relative to progesterone; settings: Uterus
Sequence (P06186 whole entry): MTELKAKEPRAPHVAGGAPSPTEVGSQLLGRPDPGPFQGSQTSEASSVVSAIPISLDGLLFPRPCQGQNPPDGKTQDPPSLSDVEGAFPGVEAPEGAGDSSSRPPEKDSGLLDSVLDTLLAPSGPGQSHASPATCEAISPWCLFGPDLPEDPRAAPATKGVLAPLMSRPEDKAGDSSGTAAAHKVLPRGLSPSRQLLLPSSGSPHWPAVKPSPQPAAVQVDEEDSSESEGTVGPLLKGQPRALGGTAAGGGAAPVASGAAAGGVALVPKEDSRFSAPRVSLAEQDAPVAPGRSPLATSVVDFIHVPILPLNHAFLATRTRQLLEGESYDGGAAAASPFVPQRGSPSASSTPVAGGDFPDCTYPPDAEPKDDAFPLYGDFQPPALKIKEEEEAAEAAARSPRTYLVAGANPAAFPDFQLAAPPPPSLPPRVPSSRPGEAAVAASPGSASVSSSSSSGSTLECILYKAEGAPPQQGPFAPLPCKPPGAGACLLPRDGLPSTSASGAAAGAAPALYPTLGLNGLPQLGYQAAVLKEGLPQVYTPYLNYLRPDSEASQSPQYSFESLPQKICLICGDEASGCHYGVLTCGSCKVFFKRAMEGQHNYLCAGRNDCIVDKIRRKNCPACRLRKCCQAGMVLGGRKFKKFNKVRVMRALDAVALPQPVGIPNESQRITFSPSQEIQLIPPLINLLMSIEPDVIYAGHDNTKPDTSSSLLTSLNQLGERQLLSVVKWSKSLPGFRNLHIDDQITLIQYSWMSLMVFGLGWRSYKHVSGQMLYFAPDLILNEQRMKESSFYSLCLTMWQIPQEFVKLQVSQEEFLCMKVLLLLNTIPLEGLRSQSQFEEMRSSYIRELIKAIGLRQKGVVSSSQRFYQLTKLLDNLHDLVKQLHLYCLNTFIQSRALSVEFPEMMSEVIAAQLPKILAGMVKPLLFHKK
quantity-name: Activity (%)

1. C#C[C@]1(O)CC[C@H]2[C@@H]3CCC4=CC(=O)CC[C@@H]4[C@H]3[C@H]3CCC[C@]21C3 (racemic); 136
2. C#C[C@]1(O)CC[C@H]2[C@@H]3CCC4=CC(=O)CC[C@@H]4[C@H]3[C@@H](C)C[C@@]21C; 390
3. C#C[C@]1(O)[C@H]2CCC[C@@]13CC[C@H]1[C@@H](CCC4=CC(=O)CC[C@@H]41)[C@@H]3C2 (racemic); 1
4. C#C[C@]1(O)CC[C@H]2[C@@H]3CCC4=CC(=O)CC[C@@H]4[C@H]3CC[C@@]21CCCO; 2
5. C#C[C@]1(O)CC[C@H]2[C@@H]3CCC4=CC(=O)CC[C@@H]4[C@H]3[C@@H](C)C[C@@]21CC (racemic); 151

(1) C#C[C@]1(O)CC[C@H]2[C@@H]3CCC4=CC(=O)CC[C@@H]4[C@H]3CC[C@@]21C
(2) C#C[C@]1(O)CC[C@H]2[C@@H]3CCC4=CC(=O)CC[C@@H]4[C@H]3CC[C@@]21CCCCl
(3) C#C[C@]1(O)CC[C@H]2[C@@H]3CCC4=CC(=O)CC[C@@H]4[C@H]3CC[C@@]21CCCOC(=O)CBr
(4) C#CC1(O)CC[C@H]2[C@@H]3CCC4=CC(=O)CC[C@@H]4[C@H]3CC[C@@]21CC (mixture of isomers)
(5) C#C[C@]1(O)CC[C@H]2[C@@H]3CCC4=CC(=O)CC[C@@H]4[C@H]3CC[C@@]21CCC=O
List from greatest to least Activity. # format: label list in the order the request specifies
4, 1, 5, 3, 2
(4: 206%, 1: 126%, 5: 21%, 3: 2%, 2: 1%)
